Would you mind telling me the reported log10(IC50) of each entry?
test system: T47D human breast cancer cells; assay: Alkaline phosphatase assay in human breast cancer cell line T47D; format: cell-based; details: T47D cells, alkaline phosphatase readout, 24 h with test compound, read-out: T47D IC50
// stored as log10 of IC50 expressed in µM

[in] Requested field: log10(IC50). Item: `C=C(C)[C@]1(O)CC[C@H]2[C@@H]3CCC4=CC(=O)CCC4=C3[C@@H](c3ccc(P(C)(C)=O)cc3)C[C@@]21C`
[out] -1.74

[in] Name the reported log10(IC50) value associated with the compound `C=CC[C@]1(O)CC[C@H]2[C@@H]3CCC4=CC(=O)CCC4=C3[C@@H](c3ccc(P(=O)(c4ccccc4)c4ccccc4)cc3)C[C@@]21C`
[out] -0.12

[in] // query log10(IC50) value for entry `C=C1CCO[C@]12CC[C@H]1[C@@H]3CCC4=CC(=O)CCC4=C3[C@@H](c3ccc(P(=O)(c4ccccc4)c4ccccc4)cc3)C[C@@]12C`
[out] -1.35

[in] I have this compound here, `C[C@]12C[C@H](c3ccc(P(=O)(OCc4ccccc4)OCc4ccccc4)cc3)C3=C4CCC(=O)C=C4CC[C@H]3[C@@H]1CCC2=O` , and I need its recorded log10(IC50).
[out] -0.01

[in] GET /values?readout=log10(IC50)&item= `CC#C[C@]1(O)CC[C@H]2[C@@H]3CCC4=CC(=O)CCC4=C3[C@@H](c3ccc(P(=O)(c4ccccc4)c4ccccc4)cc3)C[C@@]21C`
[out] -0.42

[in] Record request: log10(IC50) value, item `C[C@]12C[C@H](c3ccc(P(=O)(c4ccccc4)c4ccccc4)cc3)C3=C4CCC(=O)C=C4CC[C@H]3[C@@H]1CC[C@@]2(O)C#Cc1ccccc1`
[out] -0.56

Origin of measurements: patent US7671045B2
